Tested on: MDA-MB-435 melanoma
Test: NCI-60 one-dose screen, 48 h
Details: 10 µM unless noted
Compounds without any hit were thinned out: in the full panel of roughly 83,000, 20% have a hit. Active and inactive are the calls of the source. Rule for the calls: active = growth percent below 10; inactive = the rest.
Possible outcomes: active, inactive

{"compound": "CC(=O)O[C@@H]1C2=C(C)C3(CC3)[C@@](C)(O)C(=O)C2=C[C@@]1(C)CO", "class.label": "active"}
{"compound": "CNC(=O)Oc1cc(C(C)C)ccc1Sc1ccc(C(C)C)cc1OC(=O)NC", "class.label": "active"}
{"compound": "CCCCNCCc1ccccn1", "class.label": "inactive"}
{"compound": "CNc1ccc(C(=O)CC(O)CCC(C)C2OC(=O)CC(O)CC(=O)CC(O)CC(O)CC(O)CC(O)CC3(O)CC(O)C(C(=O)OC)C(CC(O[C@@H]4O[C@H](C)[C@@H](O)[C@H](N)[C@@H]4O)/C=C/C=C/C=C/C=C/C=C/C=C/C=C/C2C)O3)cc1 (stereo partly drawn)", "class.label": "active"}
{"compound": "ClCCN(CCCl)c1nc(Cl)c(C2CC(c3ccc(Cl)cc3)=NN2c2cc(Cl)cc(Cl)c2)s1 (stereo not drawn)", "class.label": "inactive"}
{"compound": "CC1=C(SCCC(=O)OCC(=O)NCCC[Te]c2ccccc2)C(=O)c2ccccc2C1=O", "class.label": "active"}
{"compound": "C[C@]12CC[C@H](OC3OC(O)C(O)C(O)C3O)C=C1CCC1C2CC[C@]2(C)[C@@H](c3ccc(=O)oc3)CC[C@]12O (stereo partly drawn)", "class.label": "active"}
{"compound": "c1ccc2nc(OCCN3CC3)ccc2c1", "class.label": "inactive"}
{"compound": "O=C(O)CC(Br)C(=O)CBr (stereo not drawn)", "class.label": "inactive"}
{"compound": "Cc1ccc(C[As+](c2ccccc2)(c2ccccc2)c2ccccc2)cc1", "class.label": "active"}
{"compound": "CC(=O)O[C@H]1C[C@H](O[C@H]2[C@@H](O)C[C@H](O[C@H]3[C@@H](O)C[C@H](O[C@H]4CC[C@@]5(C)C(CCC6C5C[C@@H](O)[C@]5(C)[C@@H](C7=CC(=O)OC7)CC[C@]65O)C4)O[C@@H]3C)O[C@@H]2C)O[C@H](C)[C@H]1O[C@@H]1O[C@H](CO)[C@@H](O)[C@H](O)[C@H]1O (stereo partly drawn)", "class.label": "active"}
{"compound": "CCOc1cc(/C=N\\Nc2nnc(C)n2N)c(C)cc1N(CCCl)CCCl", "class.label": "active"}
{"compound": "Nc1cccc(CC(=O)Nc2ccc(S(=O)(=O)F)cc2)c1", "class.label": "inactive"}
{"compound": "C[C@]12CC[C@@H]3C4=C(CC[C@H]3[C@@H]1CC[C@@H]2O)CC(=O)CC4", "class.label": "inactive"}
{"compound": "CC1(C)N=C(N)N=C(N)N1c1ccc(OCCCCOc2ccc(S(=O)(=O)F)cc2)c(Cl)c1", "class.label": "inactive"}
{"compound": "C/C1=C/C(=O)O[C@@H]2C[C@@H](CC[C@H](C)/C=C\\C=C\\CC1)O[C@@](OCCc1ccccc1)([C@@H]1CSC(=O)N1)C2", "class.label": "inactive"}
{"compound": "CN=C(NN)NN", "class.label": "inactive"}
{"compound": "O=C(CI)Nc1ccc(Br)cc1", "class.label": "inactive"}
